- measuredOn: Aspartate--tRNA(Asp/Asn) ligase (Mycobacterium tuberculosis (strain ATCC 25618 / H37Rv)) (UniProt P9WFW3)
- Sequence (whole entry): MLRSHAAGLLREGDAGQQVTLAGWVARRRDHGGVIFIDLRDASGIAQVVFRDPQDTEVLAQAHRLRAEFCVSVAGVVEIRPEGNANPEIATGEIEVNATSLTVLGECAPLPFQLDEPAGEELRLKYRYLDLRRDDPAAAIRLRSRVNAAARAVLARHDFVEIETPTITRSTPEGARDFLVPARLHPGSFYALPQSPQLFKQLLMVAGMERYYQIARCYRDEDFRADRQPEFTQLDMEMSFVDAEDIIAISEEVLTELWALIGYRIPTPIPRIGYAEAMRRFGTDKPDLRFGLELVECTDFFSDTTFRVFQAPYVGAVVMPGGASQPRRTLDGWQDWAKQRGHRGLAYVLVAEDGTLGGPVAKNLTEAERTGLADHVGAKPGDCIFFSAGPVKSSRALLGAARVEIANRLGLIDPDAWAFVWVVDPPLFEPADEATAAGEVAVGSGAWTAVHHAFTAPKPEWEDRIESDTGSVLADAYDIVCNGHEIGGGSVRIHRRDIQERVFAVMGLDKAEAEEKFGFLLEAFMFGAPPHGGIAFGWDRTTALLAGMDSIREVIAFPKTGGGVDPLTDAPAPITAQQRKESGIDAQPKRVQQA
- assay: Assay for Asp RNA synthetase-1 from Mycobacterium tuberculosis
- Format: functional
- Set-up: scale not given: in the data most compounds retested in dose-response had high values
- protocolConditions: 30 µM

[
  {
    "compound": "CCn1cc(C(=O)NCc2csc(Br)c2)cn1",
    "Percent Effect": "-3.16%"
  },
  {
    "compound": "CC(C)c1nccn1C1CCCN(C(=O)c2ccnc(N(C)C)c2)C1 (stereo unspecified)",
    "Percent Effect": "2.16%"
  },
  {
    "compound": "COc1ccc(CNC(=O)N(Cc2ccc(F)cc2F)C2CC2)cn1",
    "Percent Effect": "-9.17%"
  },
  {
    "compound": "O=C(NCC(Cc1cccc(F)c1)N1CCCC1=O)c1ccccc1 (stereo unspecified)",
    "Percent Effect": "-2.27%"
  },
  {
    "compound": "O=S(=O)(Cc1ccccc1F)NCCN1CCOCC1",
    "Percent Effect": "-2.93%"
  },
  {
    "compound": "Fc1cc(CNCc2ccc3c(c2)CCO3)ccc1N1CCOCC1",
    "Percent Effect": "-1.01%"
  }
]
